Cited source: ChEMBL document CHEMBL2046298

experiment: Plasma concentration in CD-1 mouse at 10 mg/kg, po measured at 4 hrs; assay type: ADME, organism-based; design: dose 10 mg/kg, route oral
Result Type: log10 concentration at 4 h (log10 of the value in ng/mL)
Scale: decimal log of concentration at 4 h, concentration at 4 h in ng/mL.

Below are worked cases with known answers.
Data request: For the compound shown here, `COc1cc(N2CCC(CC(=O)N3CCCC3)CC2)ccc1Nc1nc(NC2CCCCC2)c2nc[nH]c2n1` , give the reported log10 concentration at 4 h.
Data returned: 2.14

Data request: For the compound shown here, `COc1cc(N2CCN(Cc3ccccn3)CC2)ccc1Nc1nc(NC2CCCCC2)c2nc[nH]c2n1` , give the reported log10 concentration at 4 h.
Data returned: 1.82

Data request: For the compound shown here, `COc1cc(N2CCN(S(=O)(=O)CCCN3CCOCC3)CC2)ccc1Nc1nc(NC2CCCCC2)c2nc[nH]c2n1` , give the reported log10 concentration at 4 h.
Data returned: 2.19

Data request: For the compound shown here, `COc1cc(N2CCC(N3CCOCC3)CC2)ccc1Nc1nc(NC2CCCCC2)c2nc[nH]c2n1` , give the reported log10 concentration at 4 h.
Data returned: 2.02

Further cases:
Data request: For the compound shown here, `COc1cc(N2CCC(C(=O)N3CCOCC3)CC2)ccc1Nc1nc(NC2CCCCC2)c2nc[nH]c2n1` , give the reported log10 concentration at 4 h.
Data returned: 1.22

Data request: For the compound shown here, `COc1cc(N2CCC(CN3CCOCC3)CC2)ccc1Nc1nc(NC2CCCCC2)c2nc[nH]c2n1` , give the reported log10 concentration at 4 h.
Data returned: 2.64
